assay: qHTS assay to identify small molecule antagonists of the retinoid acid receptor (RAR) signaling pathway - cell viability counter screen (AID 1159551); details: C3RL4 cells viability, ATP luminescence (CellTiter-Glo), 6 h; series mostly up to 92.4 µM; also: % is scaled to controls: 0 for no effect and ±100 for the full control effect; nearly all actives have a fitted effect of over 35% in size
Records with an inconclusive call do not appear. Active and inactive are the calls of the source. Calls follow the shape of the dose curve; as a rule, active = well fitted cell-killing curve with a large enough effect in the repeat runs; inconclusive = weak or mixed curves, or effect the other way; inactive = flat fitted curve, though single readings scatter.
MEASURED_QUANTITY: activity change, negative = cytotoxicity

# annotated cases, reported activity change, negative = cytotoxicity shown
>  <MOLECULE>
Cc1ccc(C)c(N)c1

>  <OBSERVED_MEASUREMENT>
inactive

$$$$
>  <MOLECULE>
OCCN(CCO)c1ccccc1

>  <OBSERVED_MEASUREMENT>
inactive

$$$$
>  <MOLECULE>
C1CSCCS1

>  <OBSERVED_MEASUREMENT>
inactive

$$$$
>  <MOLECULE>
Cc1c[nH]c(=S)[nH]c1=O

>  <OBSERVED_MEASUREMENT>
inactive

$$$$
>  <MOLECULE>
CN(C)CCOc1ccccc1Cc1ccccc1

>  <OBSERVED_MEASUREMENT>
inactive

$$$$
>  <MOLECULE>
CCOc1ccc(OCC)c(Cl)c1

>  <OBSERVED_MEASUREMENT>
inactive

$$$$
>  <MOLECULE>
Cc1c(N)cccc1N

>  <OBSERVED_MEASUREMENT>
inactive

$$$$
>  <MOLECULE>
O=c1oc2c(O)c(O)cc3c(=O)oc4c(O)c(O)cc1c4c23

>  <OBSERVED_MEASUREMENT>
-0.41% [at 19 µM] (inactive)

$$$$

Here are 6 molecules. What values of activity change, negative = cytotoxicity were reported for them?
1. O=C(O)C(=O)Cc1c[nH]c2ccccc12
2. CNCCC(Oc1ccccc1OC)c1ccccc1 (configuration not stated)
3. CN1CCN(C2=Nc3ccccc3Oc3ccc(Cl)cc32)CC1
4. CCOc1ccc2nc(N)sc2c1
5. NC/C=C/C(=O)O
6. O=C(O)[C@@H](O)[C@H](O)[C@H](O)[C@@H](O)C(=O)O

Response given:
["inactive", "inactive", "inactive", "inactive", "inactive", "inactive"]

List activity change, negative = cytotoxicity for every entry below, keeping the order given.
1. CCCCOc1cc(C(=O)NCCN(CC)CC)c2ccccc2n1
2. OCC(CBr)(CBr)CBr
3. O=C(Cl)c1cccc([N+](=O)[O-])c1

Response given:
["inactive", "inactive", "inactive"]

---

test: qHTS assay for small molecule disruptors of the mitochondrial membrane potential (AID 720635); conditions: HepG2 mitochondrial membrane potential, Mito-MPS dye ratio; series mostly up to 83.2 µM; also: % is scaled to controls: 0 for no effect and ±100 for the full control effect
Inconclusive results are not listed. The source made the active and inactive calls. The call rests on the fitted dose curve; in most records, active means well fitted inhibition curve with a large enough effect in the signal ratio in the repeat runs; inconclusive means weak or mixed curves, or effect the other way; inactive means flat fitted curve, though single readings scatter; the % refers to the signal ratio.
Valid outcomes are listed here; reply with one: 1 (active), -1 (inactive)

Take a look at these entries with their results.
>  <COMPOUND>
CC(C)C1=CC2=CC[C@@H]3[C@](C)(CCC[C@@]3(C)C(=O)O)[C@H]2CC1

>  <QUALITATIVE_LABEL>
-1

$$$$
>  <COMPOUND>
O=C1CCC(C2CCCCC2)CC1

>  <QUALITATIVE_LABEL>
-1

$$$$
>  <COMPOUND>
Cc1ccc([N+](=O)[O-])c(N)c1

>  <QUALITATIVE_LABEL>
-1

$$$$
>  <COMPOUND>
CC(=O)N[C@@H](CC(C)C)C(=O)O

>  <QUALITATIVE_LABEL>
-1

$$$$
>  <COMPOUND>
C[C@@H]1CN(c2c(F)c(N)c3c(=O)c(C(=O)O)cn(C4CC4)c3c2F)C[C@H](C)N1

>  <QUALITATIVE_LABEL>
-1

$$$$

Challenge: Which outcome was entered for the compound CC(=O)OC(C)OC(C)=O in this test?
Response given: -1

---

assay: qHTS assay to identify small molecule antagonists of the androgen receptor (AR) signaling pathway using the MDA cell line - cell viability counter screen (AID 743041; also: % is scaled to controls: 0 for no effect and ±100 for the full control effect; nearly all actives have a fitted effect of over 45% in size); conditions: MDA-kb2 viability, CellTiter-Fluor, 16 h, cells co-treated with R1881 androgen agonist; series mostly up to 70.3 µM
Records with an inconclusive call do not appear. Active and inactive are the calls of the source. The call rests on the fitted dose curve; in most records, active means well fitted cell-killing curve with a large enough effect in the repeat runs; inconclusive means weak or mixed curves, or effect the other way; inactive means flat fitted curve, though single readings scatter.
Outcome field: choose from t for active, f for inactive

>  <COMPOUND>
CC/C=C\CCOC(=O)C(C)C

>  <QUALITATIVE_LABEL>
f

$$$$
>  <COMPOUND>
OC[C@H]1O[C@@H](O[C@H]2[C@H](O)[C@@H](O)[C@H](O)O[C@@H]2CO)[C@H](O)[C@@H](O)[C@H]1O

>  <QUALITATIVE_LABEL>
f

$$$$
>  <COMPOUND>
CCOC(=O)COc1ccc2c(c1)CC(NCC(O)c1cccc(Cl)c1)CC2 (stereo unspecified)

>  <QUALITATIVE_LABEL>
f

$$$$
>  <COMPOUND>
CC1(O)CSC(C)(O)CS1 (stereo unspecified)

>  <QUALITATIVE_LABEL>
f

$$$$
>  <COMPOUND>
c1ccc(CN(CC2=NCCN2)c2ccccc2)cc1

>  <QUALITATIVE_LABEL>
f

$$$$

Challenge: What did the test return for CN1CCN(c2c(F)cc3c(=O)c(C(=O)O)cn(CCF)c3c2F)CC1 ?
Response given: f

Challenge: Query: recorded result category for CCCCCCOc1ccc(N)cc1 in this test
Response given: f

Challenge: What was the test verdict on CCN(CC)CC1CCCCN1CC(=O)N1c2ccccc2C(=O)Nc2cccnc21 (stereo unspecified) ?
Response given: f

Challenge: Field: outcome | Entry: Cc1nnc(SCC2=C(C(=O)O)N3C(=O)[C@@H](NC(=O)Cn4cnnn4)[C@H]3SC2)s1
Response given: f

Challenge: Returns: the outcome recorded for C[C@@H](N)C(=O)O in this assay.
Response given: f

Challenge: For CN1CCN(c2c(F)cc3c(=O)c(C(=O)O)cn4c3c2SCC4)CC1 , what call appears in the results of this test?
Response given: f

Challenge: So what was the verdict on CCOC(=O)C1CC(=O)C(=C(O)C2CC2)C(=O)C1 (stereo unspecified) in this test?
Response given: f

Challenge: Could you please tell me the result logged for CN(C)CC[C@@H](c1ccc(Cl)cc1)c1ccccn1 in this assay?
Response given: f

Challenge: For this compound, state the assay outcome: CCC1(C)NC(=O)NC1=O (stereo unspecified)
Response given: f

Challenge: Hi, do you know how C[C@]12CCC(=O)C=C1CC[C@@H]1[C@@H]2CC[C@@]2(C)[C@H]1CC[C@]2(O)C(=O)CO came out in this test?
Response given: f

Challenge: Status in this test for C[C@]12C(=O)OC(=O)[C@H]1[C@H]1C=C[C@@H]2C1 ?
Response given: f

Challenge: Test call, this compound: COc1nc(C)nc(NC(=O)NS(=O)(=O)c2ccccc2OCCCl)n1
Response given: f

---

experiment: A CellTox Green Cytotoxicity Assay to monitor cytotoxicity in HepG2 cells - 40 hour (AID 1224879); conditions: CellTox Green fluorescence; series mostly up to 76.8 µM; also: nearly all actives have a fitted effect of over 40% in size
Results filed as inconclusive are left out. Active and inactive are the calls of the source. Calls come from the whole dose curve; as a rule, active = well fitted activation curve with a large enough effect in the repeat runs; inconclusive = weak or mixed curves; inactive = flat fitted curve, though single readings scatter.
Classes to choose from: True (active), False (inactive)

Worked examples, 8 molecules total:
>  <MOLECULE>
O=C(O[C@@H](C(=O)O)[C@@H](OC(=O)c1ccccc1)C(=O)O)c1ccccc1

>  <QUALITATIVE_LABEL>
False

$$$$
>  <MOLECULE>
CN1[C@@H]2CC[C@H]1CC(OC(=O)c1c[nH]c3ccccc13)C2 (stereo not given in full)

>  <QUALITATIVE_LABEL>
False

$$$$
>  <MOLECULE>
CC(=O)OC1C2(C)CCC(C2)C1(C)C (stereo not given)

>  <QUALITATIVE_LABEL>
False

$$$$
>  <MOLECULE>
c1ccc(CN(CC2=NCCN2)c2ccccc2)cc1

>  <QUALITATIVE_LABEL>
False

$$$$
>  <MOLECULE>
O=S(=O)(O)C(F)(F)F

>  <QUALITATIVE_LABEL>
False

$$$$
>  <MOLECULE>
CC(C)OC(C)C

>  <QUALITATIVE_LABEL>
False

$$$$
>  <MOLECULE>
CCN(CC)CCOc1ccc(Cc2ccccc2)cc1

>  <QUALITATIVE_LABEL>
True

$$$$
>  <MOLECULE>
COC(=O)C(C)O (stereo not given)

>  <QUALITATIVE_LABEL>
False

$$$$

Please examine the following record next.
Challenge: How did this test come out for OCc1c2ccccc2cc2ccccc12 ?
Response given: False

---

experiment: qHTS assay to identify small molecule agonists of the retinoic acid receptor (RAR) signaling pathway (AID 1159553); settings: C3RL4 RARE luciferase reporter, agonist, 6 h; series mostly up to 73.3 µM; also: % is scaled to controls: 0 for no effect and ±100 for the full control effect
Inconclusive results are not listed. Calls of active or inactive are those of the source. Calls come from the whole dose curve; as a rule, active = well fitted activation curve with a large enough effect in the repeat runs; inconclusive = weak or mixed curves, or effect the other way; inactive = no such curve, though single readings can be large or run the other way.
MEASURED_QUANTITY: outcome

Below, 10 compounds whose answers are already recorded.
>  <COMPOUND>
O=C(O)CN(CCN(CC(=O)O)CC(=O)O)CCN(CC(=O)O)CC(=O)O

>  <outcome>
inactive

$$$$
>  <COMPOUND>
CC(C)(C)C1CCCCC1=O (stereo unspecified)

>  <outcome>
inactive

$$$$
>  <COMPOUND>
O=c1[nH]c(=O)n([C@H]2C[C@H](O)[C@@H](CO)O2)cc1C(F)(F)F

>  <outcome>
inactive

$$$$
>  <COMPOUND>
COC(=O)N[C@H](C(=O)N[C@@H](Cc1ccccc1)[C@@H](O)CN(Cc1ccc(-c2ccccn2)cc1)NC(=O)[C@@H](NC(=O)OC)C(C)(C)C)C(C)(C)C

>  <outcome>
inactive

$$$$
>  <COMPOUND>
C=C(C)C(=O)OCCOP(=O)(O)O

>  <outcome>
inactive

$$$$
>  <COMPOUND>
CC1(C)O[C@@H]2C[C@H]3[C@@H]4CCC5=CC(=O)CC[C@]5(C)[C@@]4(F)[C@@H](O)C[C@]3(C)[C@]2(C(=O)CCl)O1

>  <outcome>
inactive

$$$$
>  <COMPOUND>
OCCN1CCN(CCO)CC1

>  <outcome>
inactive

$$$$
>  <COMPOUND>
CC(=O)OC1C2(C)CCC(C2)C1(C)C (stereo unspecified)

>  <outcome>
inactive

$$$$
>  <COMPOUND>
CN1CCN(N)CC1

>  <outcome>
inactive

$$$$
>  <COMPOUND>
C/C(=N\O)[C@@H](C)NCC(C)(C)CN[C@H](C)/C(C)=N/O

>  <outcome>
inactive

$$$$

State recorded outcome for all listed compounds.
1. COC(=O)C(C)O (stereo unspecified)
2. CC1=C(CC(=O)O)c2cc(F)ccc2/C1=C\c1ccc(S(C)(=O)=O)cc1
3. CC(=O)OC(C)OC(C)=O
4. Clc1cccc(-c2cc(Cl)cc(Cl)c2)c1
5. NC(=O)Cc1cccc(C(=O)c2ccccc2)c1N
6. CCCCCCCCCCCCCCCCOP(=O)([O-])OCC[N+](C)(C)C

Response given:
1. inactive
2. inactive
3. inactive
4. inactive
5. inactive
6. inactive

Would you mind giving outcome for every compound in the list below?
1. CC(C)NC[C@@H](O)COc1cccc2ccccc12
2. C=O
3. COc1cc(Cl)ccc1Cl
4. CN(C)Cc1ccccc1

Response given:
inactive
inactive
inactive
inactive
